# Test system: OVCAR-5 ovarian
# measurementDescription: NCI tumour cell line growth inhibition, 48 h
observable: TGI

1. NC(=O)c1sc(-n2cnc3cc(C(F)(F)F)ccc32)cc1OCc1ccccc1Br : > 25 µM
2. COc1cc2c(c(OC)c1OC)-c1ccc(N=NC(N)=S)c(=O)cc1[C@@H](NC(C)=O)CC2 : > 100 µM
3. Cn1cc(S(=O)(=O)NC(=O)Nc2ccc(Cl)cc2)c(=O)c2ccc(F)cc21 : > 100 µM
4. Cc1cc(S(=O)(=O)Nc2n[nH]c(N)n2)c(Cl)cc1Cl : > 10 µM
5. CC(=O)OCC1OC(n2c(S)c(C#N)c(-c3ccccc3)c(C#N)c2=O)C(OC(C)=O)C(OC(C)=O)C1OC(C)=O (stereo not given) : > 100 µM

----------
# Test system: T-47D breast
# measurementDescription: NCI tumour cell line growth inhibition, 48 h
TGI: recorded values
observable: TGI

1) O=C(/C=C(\C(=O)c1cccs1)c1cccs1)c1ccc(C(=O)/C=C(\C(=O)c2cccs2)c2cccs2)cc1 : > 100 µM
2) CCc1nc(N)nc(N)c1-c1ccc(Cl)c(N=[N+]=[N-])c1 : > 96.2 µM
3) COC1C(N(C)C)=C(c2ccccc2)C(=O)N2CCc3ccccc3C12 (configuration not stated) : > 100 µM
4) COc1ccccc1C1(c2c(OC)c(=O)c2=O)SCCCS1 : > 100 µM
5) COc1ccc(C2C(=O)c3c(OC)cc(OC)cc3OC2c2cccnc2)cc1 (configuration not stated) : > 100 µM
6) O=C(Cn1c(C(=O)c2ccccc2)nc2ccccc21)c1ccccc1 : > 100 µM
7) O=C(O)/C=C/c1ccc2c(c1)CC1(Cc3ccccc3C1)C2 : > 100 µM
8) CCOC(=O)Nc1cc2ccccc2c(N=Nc2ccccc2)c1O : > 100 µM
9) CCN1C(=NCCO)NS(=O)(=O)c2ccccc21 : > 100 µM
10) CC1(C)Cc2c(Br)c(Br)c(Br)c(OCC(O)CN3CCN(c4ccccn4)CC3)c2O1 (configuration not stated) : > 100 µM
11) Cc1nc2cc(Nc3nc(Nc4ccc(F)cc4)nc(N4CCOCC4)n3)ccc2n1Cc1ccccc1 : > 100 µM
12) CCC(C)C1=C(O)[N+]2([O-])Oc3ccc(-c4c(O)c(O)c(-c5ccc(OC(C)=O)cc5)c(OC(C)=O)c4OC(C)=O)cc3OC2(C(C)CC)C(=O)N1O (configuration not stated) : > 50 µM

These measurements were taken from PubChem BioAssay (NCI).
